Study system: T1, recombinant biotinylated PD-L1 (rhPD-L1/Fc Chimera, R&D Systems 156-B7) (human, UniProt Q9NZQ7 19-238, biotinylated (sites not given))
T1 construct: Bought Fc chimera; also called human PD-L1
T1 sequence (Q9NZQ7 19-238, change not shown): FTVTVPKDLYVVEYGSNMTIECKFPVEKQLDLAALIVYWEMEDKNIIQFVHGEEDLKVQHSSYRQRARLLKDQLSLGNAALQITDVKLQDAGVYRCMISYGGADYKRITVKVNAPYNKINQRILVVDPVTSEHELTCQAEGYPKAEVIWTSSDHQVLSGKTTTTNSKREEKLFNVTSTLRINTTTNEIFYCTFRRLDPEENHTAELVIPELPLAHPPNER
Experiment notes: ELISA, lysate on plate-bound antigen
ELISA PD-L1 Fc (RSU) values by entry
Give just the number in RSU; leave the unit off.

Use the examples below as a reference point.
ISOP121GR5P1B4 (designed binder, not shown: small tags and cut ends, FN3 domain; E. coli lysate in the ELISA) LPAPKNLIVSRVTEDSARLSWTAPDAAFDSFPINYGERATKGEAINLYVPGSERSYDLTGLKPGTEYWVLIGGVKGGLKSSPLWAWFTT : 16200
ISOP121AR5P1G6 (designed binder, not shown: small tags and cut ends, FN3 domain; E. coli lysate in the ELISA) LPAPKNLVVSRVTEDSARLSWHATFGDPFDSFLIQYQESEKVGEAIVLTVPGSERSYDLTGLKPGTEYTVSIYGVGRHYTVYDSNPLSAIFTT : 17000
ISOP194GR9P1F9 (designed binder, not shown: small tags and cut ends, FN3 domain; E. coli lysate in the ELISA) LPAPKNLVVSRVTEDSARLSWTAPDAAFDSFWIFYNERWQNGEAIRLIVPGSERSYDLTGLKPGTEYSVIIPGVKGGRNSFPLWAWFTT : 105000

Now for the binder whose ELISA PD-L1 Fc (RSU) we want.
Read the entry ISOP121AR5P1E7 (designed binder, not shown: small tags and cut ends, FN3 domain; E. coli lysate in the ELISA) LPAPKNLVVSRVTEDSARLSWHVYHEIDYFDSFLIQYQESEKVGEAIVLTVPGSERSYDLTGLKPGTEYTVSIYGVYQRKVEFYSNPLSAIFTT and write its reported ELISA PD-L1 Fc (RSU). 327000
